Experiment: Immunotoxin (HA22) sensitization/mitigation study. Vehicle arm (PBS) (AID 1159510); also: potency is read from the fitted curve at half-maximal effect
Condition Set: cancer cells viability with PBS vehicle (HA22 study); series mostly up to 46.1 µM
Activity calls are given as the source filed them. No rule for the calls is given here.
Experimental Endpoint: Potency

Here's what some known entries look like.
Cc1nnc(C(C)C)n1C1CC2CCC(C1)N2CC[C@H](NC(=O)C1CCC(F)(F)CC1)c1ccccc1 (some centres undefined) : inactive
Cc1ccc(NC(=O)c2ccc(CN3CCN(C)CC3)cc2)cc1Nc1nc(-c2cccnc2)cs1 : 20.9 µM (active)
Cn1c(=O)n(-c2ccc(C(C)(C)C#N)cc2)c2c3cc(-c4cnc5ccccc5c4)ccc3ncc21 : 3.72 µM (active)
O=C(C=Cc1cccc(S(=O)(=O)Nc2ccccc2)c1)NO : 0.264 µM (active)

In the following, a different compound is considered.
Fill in the blank: the reported Potency of `CCOc1ccn(-c2ccc(F)cc2)c(=O)c1C(=O)Nc1ccc(Oc2ccnc(N)c2Cl)c(F)c1` is ____.
18.7 µM (active)

* * *

Experiment: Quantitative High-Throughput drug screen in 47 multiple myeloma cell lines against the NCATS MIPE library collection: UTMC2_PLB cell viability assay (AID 1919868); also: nearly all actives have a fitted effect of over 55% in size
Condition Set: CellTiter-Glo ATP luminescence, 48 h
Results filed as inconclusive are left out. The source made the active and inactive calls. The call rests on the fitted dose curve; in most records, active means well fitted cell-killing curve with a large enough effect; inconclusive means small, poorly fitted or top-dose-only effect, or effect the other way; inactive means no such curve, though single readings can be large or run the other way.
Field 'call' accepts active, inactive

Just curious, what result did `O=c1[nH]c2ccccc2n1C1CCN(Cc2ccc(-c3[nH]c4cc5ncnc5cc4nc3-c3ccccc3)cc2)CC1` get here?
active

Subsequent entry: C[C@H]1CCCC=CC2C[C@H](O)C[C@@H]2[C@H](O)C=CC(=O)O1 (stereo partly drawn)
inactive

Same again, this time with `C1=C2CCCN[C@H]2[C@@H]2C[C@H]1[C@@H]1CCCCN1C2`
inactive

Try the molecule `CC[C@@]1(O)C(=O)OCc2c1cc1n(c2=O)Cc2cc3ccccc3nc2-1`
active

And `CC(C)N(CCNC(=O)CN1CCCC1=O)C(C)C` ?
inactive

Then this molecule: `CCN1CCN(C(=O)Cc2ccc(Nc3ncc(F)c(Nc4ccc(C(=O)Nc5ccccc5Cl)cc4)n3)cc2)CC1`
active

What about this molecule? `Cc1ccccc1-n1c(Cn2cnc3c(N)ncnc32)nc2cccc(C)c2c1=O`
active

How about this molecule: CO[C@H]1CCC(O[C@H]2C[C@H]([C@]3(C)CC[C@]4(C[C@H](O)[C@@H](C)[C@@H]([C@@H](C)C=C(C)C(=O)[C@H](C)C[C@H](C)C(=O)O)O4)O3)O[C@]3(O[C@@H]([C@H]4O[C@@](O)(CO)[C@H](C)C[C@H]4C)C[C@H]3C)[C@H]2C)O[C@H]1C (stereo partly drawn)
active

* * *

Experiment: qHTS Screen of the MIPE 4.0 Collection Against Ewings Sarcoma (EW8) (AID 1259255); also: nearly all actives have a fitted effect of over 35% in size
Condition Set: EW8 Ewing sarcoma viability, CellTiter-Glo, 48 h; series mostly up to 45.8 µM
Inconclusive results are not listed. The source made the active and inactive calls. Calls come from the whole dose curve; as a rule, active = well fitted inhibition curve with a large enough effect; inconclusive = small, poorly fitted or top-dose-only effect; inactive = no such curve, though single readings can be large or run the other way.
Choose one outcome from this list and give only that: T (active), F (inactive)

// outcome(item) with item = O=S(=O)(CC1CS1)c1ccc(Oc2ccccc2)cc1 (configuration not stated)
T

What would you report for CCOP(=O)(OCC)C(C)NC(=O)N(CCCl)N=O (configuration not stated) ?
F

Again, but for `COc1cccc2c1[C@]13CCN(CC4CC4)[C@H](C2)[C@]1(OC)CCC(=O)C3`
F

And for `CCCCCC[C@H]1C(=O)O[C@H](C)[C@H](NC(=O)c2cccc(NC=O)c2O)C(=O)O[C@@H](C)[C@@H]1OC(=O)CC(C)C` ?
T

Follow-up item: `Cc1ccccc1-n1c(Cn2ncc3c(N)ncnc32)nc2cccc(C)c2c1=O`
T

Another: `COC(=O)[C@@H](N)CCCN=C(N)N[N+](=O)[O-]`
F

Would you mind doing `N#C[C@H](O[C@@H]1O[C@H](CO[C@@H]2O[C@H](CO)[C@H](O)[C@H](O)[C@H]2O)[C@H](O)[C@H](O)[C@H]1O)c1ccccc1` as well?
T

Same read-out for COc1ccc(CC2NCCc3cc(OC)c(OC)cc32)cc1OC (configuration not stated) ?
F

Can you check `O=C(O)CNC(=O)c1c(O)c2ccccc2n(Cc2ccccc2)c1=O` next?
T

Same question, `C[C@@H]1O[C@@H](O[C@@H]2C=C3CC[C@@H]4[C@@H](CC[C@]5(C)[C@H](c6ccc(=O)oc6)CC[C@@]45O)[C@@]3(C)CC2)[C@H](O)[C@H](O)[C@H]1O` this time
T

Next compound: `CCN(CC)C(=O)c1ccc(C2=CC3(CCNCC3)Oc3cccc(O)c32)cc1`
F

Moving on to the next compound: `CCOC(=O)c1c(C(C#N)=CN)c2ccc(Cl)c(Cl)c2n1C`
F

Thanks! And `CC=C(C)C(=O)N[C@@H](c1ccccc1)[C@@H](O)C(=O)O[C@H]1C[C@@]2(O)[C@@H](OC(=O)c3ccccc3)[C@@H]3[C@]4(OC(C)=O)CO[C@@H]4C[C@H](O)[C@@]3(C)C(=O)[C@H](OC(C)=O)C(=C1C)C2(C)C` ?
F

Entry to check: COc1ccc2c(c1)[C@]13CCCCC1C(C2)N(C)CC3 (some centres not stated)
F

Next compound up: `COC[C@H]1OC(=O)c2coc3c2[C@@]1(C)C1=C(C3=O)[C@@H]2CC[C@H](O)[C@@]2(C)C[C@@H]1OC(C)=O`
T

Would you kindly repeat that for `CC(C)[C@]12O[C@@H]1[C@@H]1O[C@]13[C@]1(O[C@H]1C[C@@H]1C4=C(CC[C@@]13C)C(=O)OC4)[C@H]2O` ?
F

Follow-up entry: `Clc1ccccc1C(c1ccccc1)(c1ccccc1)n1cccn1`
T
